# method: NCI Yeast Anticancer Drug Screen. Data for the rad50 strain (AID 155);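 note: 0% = growth of vehicle-only cultures of the same strain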
# conditions: S. cerevisiae rad50 strain growth inhibition; at 100.0 µM; stronger effect = higher value
This is part of a sample that, as a whole, favours compounds with a hit. Of some 79,000 tested, about 15% had one in any assay. Starred links: 1 amine or outer side, 2 acyl side, 3 side chain; linkers in the order of their positions; H or OH if unused. Positions of bridges follow the written chain, without caps; N, C: chain ends. Non-standard residues stand in square brackets, D forms with d. Residues, ends and D or L forms follow the SMILES beside them. Chains are numbered I, II in the order given. Actinocin(9to1) = Cc1c2oc3c(C)ccc(C(=O)[*:1])c3nc-2c(C(=O)[*:2])c(N)c1=O; aThr = C[C@H](O)[C@H](N)C(=O)O; NMeV = CN[C@H](C(=O)O)C(C)C; Sar = CNCC(=O)O
endpoint: growth inhibition (%)

| compound | endpoint | measured number |
| --- | --- | --- |
| Cc1ccc(SSc2ccc(C)cc2[N+](=O)[O-])c([N+](=O)[O-])c1 | growth inhibition | 86 |
| CC1C=CN(N(C)C)C2=C1C(=O)c1cnccc1C2=O (stereo unspecified) | growth inhibition | 96 |
| Cc1c2oc3c(C)ccc(C(=O)N[C@@H]4C(=O)N[C@H](C(C)C)C(=O)N5CCC[C@H]5C(=O)N(C)CC(=O)N(C)[C@@H](C(C)C)C(=O)O[C@H]4C)c3nc-2c(C(=O)N[C@@H]2C(=O)N[C@H](C(C)C)C(=O)N3CCC[C@H]3C(=O)N(C)CC(=O)N(C)[C@@H](C(C)C)C(=O)O[C@H]2C)c(N)c1=O (I: [aThr][dV]P[Sar][NMeV] / II: [aThr][dV]P[Sar][NMeV]; ester I:1-I:C, II:1-II:C; linker I:N-II:N via Actinocin(9to1)) | growth inhibition | 99 |
| O=C(CSS(=O)(=O)O)c1ccccc1 | growth inhibition | 16 |
| O=C(O)NCC1CCCCC1 (tested in a mixture with another compound) | growth inhibition | 83 |
| CCOC(=O)/C(O)=C(/C=N/C(=S)Nc1c(CC)cccc1CC)C(=O)OCC | growth inhibition | 47 |
